Record form. Attribute: IC50. Fill in for each entry.
Test system: HIV
ASSAY PROTOCOL: MT4 assay: antiviral HIV activity (cell protection, cell titer glo readout at 96 hours)
Format: cell-based
CONDITION DETAILS: Human immunodeficiency virus 1, MT4, 96 h, MT4 cells, cell titer glo readout at 96 hours, 10 point dose response; read-out: HIV MT4 Assay IC50

Any idea what IC50 was measured for Cc1nc2c(cc(-c3nc(N4CCN(CCN5CCOCC5)CC4)ns3)n2C)c(-c2cc(F)c3c(c2C)CCCO3)c1[C@H](OC(C)(C)C)C(=O)O [Example 405] ? 2.7 nM

Follow-up item: Cc1nc2c(cc(-c3noc(N4CCC(C)CC4)n3)n2C)c(-c2cc(F)c3c(c2C)CCCO3)c1[C@H](OC(C)(C)C)C(=O)O (atropisomer, axis not shown; (M)) [Example 411] 7.6 nM

Follow-up item: Cc1nc2c(cc(-c3ccnc(-c4ccc5c(cnn5C)c4)c3)n2C)c(-c2cc(F)c3c(c2C)NCCO3)c1[C@H](OC(C)(C)C)C(=O)O (atropisomer, axis not shown) [Example 3] 1.9 nM

Follow-up item: Cc1nc2c(cc(-c3ccnc(-c4ccc(N(C)C)nc4)c3)n2C)c(-c2cc(F)c3c(c2C)CCCO3)c1[C@H](OC(C)(C)C)C(=O)O (atropisomer, axis not shown) [Example 69] 4.8 nM

Follow-up item: Cc1nc2c(cc(C(=O)NCc3ccc4c(c3)OCO4)n2C)c(-c2cc(F)c3c(c2C)CCCO3)c1[C@H](OC(C)(C)C)C(=O)O [Example 260] 1.9 nM

Follow-up item: CCCn1cc(-c2cc(-c3cc4c(-c5cc(F)c6c(c5C)CCCO6)c([C@H](OC(C)(C)C)C(=O)O)c(C)nc4n3C)ccn2)cn1 [Example 44] 14 nM

Follow-up item: Cc1nc2c(cc(C(=O)N3CCN(c4ccc5c(cnn5C)c4)CC3)n2C)c(-c2cc(F)c3c(c2C)CCCO3)c1[C@H](OC(C)(C)C)C(=O)O (atropisomer, axis not shown) [Example 11] 14.8 nM

Follow-up item: CCN(C(=O)c1cc2c(-c3cc(F)c4c(c3C)CCCO4)c([C@H](OC(C)(C)C)C(=O)O)c(C)nc2n1C)C1CCCCC1 [Example 261] 46.8 nM

Follow-up item: Cc1nc2c(cc(-c3ccn(C4CN(C5CCOCC5)C4)n3)n2C)c(-c2cc(F)c3c(c2C)CCCO3)c1[C@H](OC(C)(C)C)C(=O)O [Example 187] 26.5 nM

Follow-up item: Cc1nc2c(cc(-c3cc(-c4ccc5c(cnn5C)c4)ccn3)n2C)c(-c2cc(F)c3c(c2C)CCCO3)c1[C@H](OC(C)(C)C)C(=O)O [Example 139] 2 nM

Follow-up item: Cc1nc2c(cc(-c3nnc(N4CCC[C@@H]4C)o3)n2C)c(-c2cc(F)c3c(c2C)CCCO3)c1[C@H](OC(C)(C)C)C(=O)O [Example 324] 4 nM

Follow-up item: Cc1nc2c(cc(C(=O)NCC(C)C)n2C)c(-c2cc(F)c3c(c2C)CCCO3)c1[C@H](OC(C)(C)C)C(=O)O [Example 246] 15.1 nM

Follow-up item: Cc1nc2c(cc(-c3nsc(N4CCN(C5CC5)CC4)n3)n2C)c(-c2cc(F)c3c(c2C)CCCO3)c1[C@H](OC(C)(C)C)C(=O)O [Example 373] 5.2 nM

Follow-up item: Cc1nc2c(cc(-c3nc(NCCS(C)(=O)=O)ns3)n2C)c(-c2cc(F)c3c(c2C)CCCO3)c1[C@H](OC(C)(C)C)C(=O)O [Example 406] 39.2 nM

Follow-up item: COc1ccc([C@@H](C)NC(=O)c2cc3c(-c4cc(F)c5c(c4C)CCCO5)c([C@H](OC(C)(C)C)C(=O)O)c(C)nc3n2C)cc1 [Example 216] 41.3 nM

Follow-up item: Cc1nc2c(cc(C(=O)NCCc3ccccc3)n2C)c(-c2cc(F)c3c(c2C)CCCO3)c1[C@H](OC(C)(C)C)C(=O)O [Example 212] 28.8 nM

Follow-up item: Cc1nc2c(cc(-c3nc(N4CCCCC4)ns3)n2C)c(-c2cc(F)c3c(c2C)CCCO3)c1[C@H](OC(C)(C)C)C(=O)O [Example 368] 39.5 nM

Follow-up item: COC1CCN(c2nnc(-c3cc4c(-c5cc(F)c6c(c5C)CCCO6)c([C@H](OC(C)(C)C)C(=O)O)c(C)nc4n3C)o2)CC1 [Example 303] 3.9 nM

Follow-up item: Cc1nc2c(cc(-c3ccnc(-c4cccnc4)c3)n2C)c(-c2cc(F)c3c(c2C)CCCO3)c1[C@H](OC(C)(C)C)C(=O)O (atropisomer, axis not shown) [Example 6] 14.8 nM

Follow-up item: Cc1nc2c(cc(-c3nnc(N4CCN(C5CCOCC5)C[C@H]4C)o3)n2C)c(-c2cc(F)c3c(c2C)CCCO3)c1[C@H](OC(C)(C)C)C(=O)O [Example 328] 4.2 nM

Follow-up item: Cc1ccc(-c2c([C@H](OC(C)(C)C)C(=O)O)c(C)nc3c2cc(-c2ccnc(-c4ccc5c(cnn5C)c4)c2)n3C)cc1 [Example 421] 7.6 nM

Follow-up item: Cc1nc2c(cc(C(=O)N3CCc4ccccc43)n2C)c(-c2cc(F)c3c(c2C)CCCO3)c1[C@H](OC(C)(C)C)C(=O)O [Example 183] 33.9 nM

Follow-up item: Cc1nc2c(cc(CN3CCc4ccc(N5CCCCC5)cc4C3)n2C)c(-c2cc(F)c3c(c2C)CCCO3)c1[C@H](OC(C)(C)C)C(=O)O [Example 291] 44.4 nM

* * *

Record form. Attribute: pIC50. Fill in for each entry.
Tested on: HIV
ASSAY PROTOCOL: MT4 assay: antiviral HIV activity (cell protection, cell titer glo readout at 96 hours)
Type: cell-based
CONDITION DETAILS: Human immunodeficiency virus 1, MT4, 96 h, MT4 cells, cell titer glo readout at 96 hours, 10 point dose response; read-out: HIV MT4 Assay IC50
Hey, just a heads up that pIC50 is the negative log base 10 of the concentration in molar.

Any idea what pIC50 was measured for Cc1nc2c(cc(-c3ccnc(N4CCN(C5COC5)CC4)c3)n2C)c(-c2cc(F)c3c(c2C)CCCO3)c1[C@H](OC(C)(C)C)C(=O)O (atropisomer, axis not shown) [Example 25] ? 7.97

Follow-up item: Cc1nc2c(cc(-c3ccnc(-c4ccc5nccn5c4)c3)n2C)c(-c2cc(F)c3c(c2C)CCCO3)c1[C@H](OC(C)(C)C)C(=O)O (atropisomer, axis not shown) [Example 34] 8.38

Follow-up item: Cc1nc2c(cc(CCc3ccnc4ccccc34)n2C)c(-c2cc(F)c3c(c2C)CCCO3)c1[C@H](OC(C)(C)C)C(=O)O [Example 284] 7.80

Follow-up item: Cc1nc2c(cc(-c3cnn(CC4CN(C5CCOCC5)C4)c3)n2C)c(-c2cc(F)c3c(c2C)CCCO3)c1[C@H](OC(C)(C)C)C(=O)O (atropisomer, axis not shown) [Example 130] 6.54

* * *

Tested on: HIV
ASSAY PROTOCOL: MT4 assay: antiviral HIV activity (cell protection, cell titer glo readout at 96 hours)
Assay type: cell-based
CONDITION DETAILS: Human immunodeficiency virus 1, MT4, 96 h, MT4 cells, cell titer glo readout at 96 hours, 10 point dose response; read-out: HIV MT4 Assay IC50
OUTCOME MEASURE: log10(IC50) (log10 of the value in nM)
The common logarithm of IC50 in nM is what is listed.

Observed log10(IC50) on HIV for Cc1nc2c(cc(-c3nnc(N4CCN(C)CC4)o3)n2C)c(-c2cc(F)c3c(c2C)CCCO3)c1[C@H](OC(C)(C)C)C(=O)O , please. 1.30

Follow-up item: Cc1nc2c(cc(-c3cncc(N4CCN(C5CCOCC5)CC4)n3)n2C)c(-c2cc(F)c3c(c2C)CCCO3)c1[C@H](OC(C)(C)C)C(=O)O 1.49

Follow-up item: Cc1nc2c(cc(-c3nnc(N4CCOCC4)o3)n2C)c(-c2cc(F)c3c(c2C)CCCO3)c1[C@H](OC(C)(C)C)C(=O)O 1.19

Follow-up item: Cc1nc2c(cc(-c3nnc(N4CCOC[C@H]4C)o3)n2C)c(-c2cc(F)c3c(c2C)CCCO3)c1[C@H](OC(C)(C)C)C(=O)O 1.02

Follow-up item: Cc1nc2c(cc(-c3ccnc(-c4cnn(C5CCOCC5)c4)c3)n2C)c(-c2cc(F)c3c(c2C)CCCO3)c1[C@H](OC(C)(C)C)C(=O)O (atropisomer, axis not shown) 1.21

Follow-up item: Cc1nc2c(cc(C(=O)N3CCC(NC(=O)c4cncn4C)CC3)n2C)c(-c2cc(F)c3c(c2C)CCCO3)c1[C@H](OC(C)(C)C)C(=O)O 4.70

The measurements presented in this section are drawn from patent US20150191469A1.
